experiment: Inhibition of influenza B virus (B/Brisbane/60/2008) neuraminidase using MUNANA substrate pre-incubated for 30 mins before substrate addition by fluorometric assay
Test readout: IC50
# output: numeric value plus its unit

Request: Please look up its IC50: O=c1cc(-c2ccc(O)c(O)c2)oc2cc(O[C@@H]3O[C@H](CO)[C@@H](O)[C@H](O)[C@H]3O)cc(O)c12
Response: 57.2 µM

Request: Give the measured IC50 of C[C@@H]1O[C@@H](Oc2c(-c3ccc(O)c(O)c3)oc3cc(O)cc(O)c3c2=O)[C@H](O)[C@H](O)[C@H]1O .
Response: 112 µM

Request: // lookup IC50 for CCOC(=O)C1=C[C@@H](OC(CC)CC)[C@H](NC(C)=O)[C@@H](N)C1
Response: 0.0454 µM

Request: Name the recorded IC50 for O=c1c(O)c(-c2ccc(O)cc2)oc2cc(O)cc(O)c12 .
Response: 90.8 µM

Request: Which IC50 is listed for O=c1c(O[C@@H]2O[C@H](CO)[C@H](O)[C@H](O)[C@H]2O)c(-c2ccc(O)c(O)c2)oc2cc(O)cc(O)c12 [HYPEROSIDE] ?
Response: 88.1 µM

Request: Entry under review: O=c1c(O[C@@H]2O[C@H](CO)[C@@H](O)[C@H](O)[C@H]2O)c(-c2ccc(O)c(O)c2)oc2cc(O)cc(O)c12 . Reported IC50?
Response: 384 µM

Request: Returns the measured IC50 for the input compound. Input: C[C@@H]1O[C@@H](OC[C@H]2O[C@@H](Oc3c(-c4ccc(O)c(O)c4)oc4cc(O)cc(O)c4c3=O)[C@H](O)[C@@H](O)[C@@H]2O)[C@H](O)[C@H](O)[C@H]1O
Response: 105 µM
